furin cleavage Z-score reference
target: furin, P09958; experiment: furin cleavage Z-score vs untreated control; higher = more cleavage, active = 3.5 or more, inactive = 1 or less, 8 variable residues between constant flanks; settings: 30 min;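 further: purified furin at 1:10 enzyme:substrate in 50 mM HEPES pH 7.5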
Sequence (P09958 whole entry): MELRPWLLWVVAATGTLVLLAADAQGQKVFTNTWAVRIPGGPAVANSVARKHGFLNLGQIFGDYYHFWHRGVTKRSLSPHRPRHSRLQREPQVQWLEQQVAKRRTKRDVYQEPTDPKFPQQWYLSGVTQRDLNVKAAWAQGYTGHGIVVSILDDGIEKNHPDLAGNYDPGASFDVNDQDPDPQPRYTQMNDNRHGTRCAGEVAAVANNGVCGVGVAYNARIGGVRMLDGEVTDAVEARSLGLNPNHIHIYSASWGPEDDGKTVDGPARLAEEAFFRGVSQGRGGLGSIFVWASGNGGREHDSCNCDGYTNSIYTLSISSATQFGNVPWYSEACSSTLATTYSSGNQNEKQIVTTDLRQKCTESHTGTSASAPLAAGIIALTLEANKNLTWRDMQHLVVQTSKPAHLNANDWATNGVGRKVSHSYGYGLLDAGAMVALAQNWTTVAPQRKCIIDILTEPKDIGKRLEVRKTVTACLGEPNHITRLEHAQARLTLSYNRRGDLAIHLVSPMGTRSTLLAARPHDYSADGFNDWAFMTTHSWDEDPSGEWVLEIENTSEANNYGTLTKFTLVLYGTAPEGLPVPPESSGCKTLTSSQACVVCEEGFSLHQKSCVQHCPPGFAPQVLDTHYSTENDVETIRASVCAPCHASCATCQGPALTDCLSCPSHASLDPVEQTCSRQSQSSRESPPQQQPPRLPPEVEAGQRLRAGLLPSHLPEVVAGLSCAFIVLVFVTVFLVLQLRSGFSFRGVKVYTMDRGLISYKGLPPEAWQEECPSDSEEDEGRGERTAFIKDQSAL
The list shows a part of the results. How many sequences the whole screen found active is unknown.
property-measured: furin cleavage Z-score

biosequence="CAVLSRQKREAGNASASA [FS-206]" property_measured="furin cleavage Z-score" reported="8.73 (active)"
biosequence="CAVVCCSCSYAGNASASA [HC2060]" property_measured="furin cleavage Z-score" reported="-0.914 (inactive)"
biosequence="CACKPLLREEAGNASASA [HC1229]" property_measured="furin cleavage Z-score" reported="0.531 (inactive)"
biosequence="CAHVCCSMSYAGNASASA [HC1995]" property_measured="furin cleavage Z-score" reported="-0.241 (inactive)"
biosequence="CADSSVLCECAGNASASA [HC917]" property_measured="furin cleavage Z-score" reported="-0.601 (inactive)"
biosequence="CAGEIPFYGKAGNASASA [HC846]" property_measured="furin cleavage Z-score" reported="-0.341 (inactive)"
biosequence="CAPRRHWTTQAGNASASA [HC308]" property_measured="furin cleavage Z-score" reported="0.325 (inactive)"
